Molecular target: Ribonuclease HI (Escherichia coli (strain K12))
Experiment: E. coli RNase HI inhibitors, dose response, biochemical, FRET RNA/DNA duplex cleavage (AID 365)
Conditions: E. coli RNase H, FRET RNA/DNA cleavage fluorescence
Active and inactive are the calls of the source. No rule for the calls is given here.
I would appreciate it if you answered using one of these outcomes: 1.0 for active, 0.0 for inactive

-- ask Short answer needed: outcome of this test for `Cc1ccc(S(=O)(=O)/N=C2\C=CC(=O)C=C2Cl)cc1` ?
-- reply 0.0

-- ask Short answer needed: outcome of this test for `N#C/C(=C\Nc1ccc(S(=O)(=O)Nc2nccs2)cc1)c1nc(-c2ccc(Cl)cc2)cs1` ?
-- reply 1.0

-- ask Short answer needed: outcome of this test for `Cc1ccc(-c2n[nH]c(=S)n2/N=C/c2ccc(O)c(O)c2O)cc1` ?
-- reply 0.0

-- ask Short answer needed: outcome of this test for `COC(=O)c1cc2c3c(ccc2[nH]1)N(C(=O)c1cc2c4c(ccc2[nH]1)N(C(=O)c1cc2c5c(ccc2[nH]1)N(C(N)=O)CC5)CC4)CC3` ?
-- reply 0.0

-- ask Short answer needed: outcome of this test for CC1=C(CCC(=O)O)c2cc3nc(cc4[nH]c(cc5[nH]c(cc1n2)c(C)c5C(C)O)c(C)c4C(C)O)C(C)=C3CCC(=O)O (stereo not given) ?
-- reply 0.0

-- ask Short answer needed: outcome of this test for `CC1=c2c(oc3cc(O)c(Nc4c(C)cc(O)cc4O)c(C)c23)=CC(=O)C1=Nc1c(C)cc(O)cc1O` ?
-- reply 1.0

-- ask Short answer needed: outcome of this test for `Cc1ccc(-c2cc(C(=O)Nc3sc(C(=O)OC(C)C)c(C)c3C(N)=O)c3ccccc3n2)s1` ?
-- reply 1.0

-- ask Short answer needed: outcome of this test for `Cc1ccc(N2C(=O)/C(=C/c3ccc(O)c(O)c3)SC2=S)cc1C` ?
-- reply 1.0

-- ask Short answer needed: outcome of this test for COc1ccc(C2COc3cc(O)c(O)cc3C2)cc1 (stereo not given) ?
-- reply 0.0

-- ask Short answer needed: outcome of this test for `COc1cc(C=O)ccc1OCCCOc1cccc(Oc2ccccc2)c1` ?
-- reply 1.0

-- ask Short answer needed: outcome of this test for `NC(=O)c1c(NC(=O)COc2ccccc2)sc2c1CCCCC2` ?
-- reply 1.0

-- ask Short answer needed: outcome of this test for `O=C1C(Cl)=C(NC(=O)c2ccccc2)C(=O)C(Cl)=C1NC(=O)c1ccccc1` ?
-- reply 0.0

-- ask Short answer needed: outcome of this test for `COc1ccc(N2C(=O)/C(=C\c3cn(CC(=O)Nc4ccccc4)c4ccccc34)C(=O)NC2=S)cc1` ?
-- reply 1.0

-- ask Short answer needed: outcome of this test for `CC(C)c1ccc(O)c(O)c(=O)c1` ?
-- reply 0.0

-- ask Short answer needed: outcome of this test for `CC(C)=CCC/C(C)=C/Cc1cc(/C=C/c2cc(O)c(C/C=C(\C)CCC=C(C)C)c(O)c2)cc(O)c1O` ?
-- reply 1.0

-- ask Short answer needed: outcome of this test for c1ccc(C(c2cccc3c2ccc2ccccc23)C(c2ccccc2)c2cccc3c2ccc2ccccc23)cc1 (stereo not given) ?
-- reply 1.0

-- ask Short answer needed: outcome of this test for `CC(C)c1cccc(O)c(=O)c1` ?
-- reply 0.0

-- ask Short answer needed: outcome of this test for `Cc1nn(CC(=O)Nc2sc(C)c(C)c2C(N)=O)c(C)c1[N+](=O)[O-]` ?
-- reply 1.0

-- ask Short answer needed: outcome of this test for `Cc1ccc(S(=O)(=O)/N=C2\C=C(Sc3ncn[nH]3)C(=O)c3ccccc32)cc1` ?
-- reply 0.0

-- ask Short answer needed: outcome of this test for Oc1cc(O)c2c(c1)OC(c1ccc(O)c(O)c1)C(OC1(c3cc(O)c(O)c(O)c3)Oc3cc(O)cc(O)c3C(O)C1O)C2 (stereo not given) ?
-- reply 0.0

The values you see were collected from PubChem BioAssay AID365.
